tested on: U2OS; test: Multiplex assay against U2OS; assay type: toxicity, cell-based; settings: human, 48 h, 1 µM, compound concentration 1 uM, replicate 2
REPORTED_METRIC: Total Cell Count

INPUT: What reported Total Cell Count corresponds to Cl.NC[C@@H]1O[C@H](C23CC4CC(CC(C4)C2)C3)Cc2c1ccc(O)c2O on U2OS?
OUTPUT: 127

INPUT: Same question, CC(/C=C1\SC(=S)N(CCCC(=O)Nc2ccc(C(=O)O)c(O)c2)C1=O)=C\c1ccccc1 this time
OUTPUT: 60

INPUT: Same question, CCCCCNC(=N)N/N=C/c1c[nH]c2ccc(OC)cc12.O=C(O)/C=C\C(=O)O [TEGASEROD MALEATE] this time
OUTPUT: 110

INPUT: Same question, Cc1c(P(=S)(c2ccccc2)c2ccccc2)n2ccccc2[n+]1C/C=C/c1ccccc1.[Br-] this time
OUTPUT: 213

INPUT: Same question, CN(c1cc(C(F)(F)F)nc(OCCC(=O)O)n1)c1cccc2c1CCC2 this time
OUTPUT: 81

INPUT: Same question, CC(C)c1cc(Nc2nc(N3CCC[C@H](N)C3)ncc2C(N)=O)cc(C(C)C)n1 this time
OUTPUT: 86

INPUT: Same question, C[C@@H](Oc1cc(-n2cnc3ccc(CN4CCN(C)CC4)cc32)sc1C(N)=O)c1ccccc1C(F)(F)F this time
OUTPUT: 128

INPUT: Same question, Oc1cccc(-c2nc(N3CCOCC3)c3oc4ncccc4c3n2)c1 this time
OUTPUT: 72

INPUT: Same question, CN1C(=O)[C@@H](NC(=O)c2cc3ccccc3[nH]2)N=C(c2ccccc2)c2ccccc21 [DEVAZEPIDE] this time
OUTPUT: 96

---

test system: HEK-293T; experiment: Multiplex assay against HEK293T; assay type: toxicity, cell-based; conditions: human, 12 h, 1 µM, compound concentration 1 uM, replicate 2
REPORTED_METRIC: Population Normal (%)
Give the quantity in %, number only.

INPUT: What reported Population Normal (%) corresponds to CC(C)[C@H](CO)Nc1nc(Nc2cccc(Cl)c2)c2ncn(C(C)C)c2n1 on HEK-293T?
OUTPUT: 96

INPUT: Same question, CC(Cc1ccc(O)c(O)c1)C(C)Cc1ccc(O)c(O)c1 (stereo unspecified) [NORDIHYDROGUAIARETIC ACID] this time
OUTPUT: 94

INPUT: Same question, Cl.NC[C@@H]1O[C@H](C23CC4CC(CC(C4)C2)C3)Cc2c1ccc(O)c2O this time
OUTPUT: 97

INPUT: Same question, CC(/C=C1\SC(=S)N(CCCC(=O)Nc2ccc(C(=O)O)c(O)c2)C1=O)=C\c1ccccc1 this time
OUTPUT: 97

INPUT: Same question, CCOc1ccn(-c2ccc(F)cc2)c(=O)c1C(=O)Nc1ccc(Oc2ccnc(N)c2Cl)c(F)c1 this time
OUTPUT: 97

INPUT: Same question, C=CC(=O)Nc1cc(-n2c(=O)ccc3cnc4ccc(-c5ccc(NS(C)(=O)=O)cc5)cc4c32)ccc1C this time
OUTPUT: 94

---

system: U2OS; experiment: Incucyte cell viability with U2OS; type: toxicity, cell-based; settings: human, 6 h, 10 µM, compound concentration 10 uM, replicate number 1, timepoint 6 hours; also: filed as whole numbers so only -1 and 0 and 1 occur
REPORTED_METRIC: Growth Rate
Please reply with the number alone, leaving off any unit.

INPUT: Item under review: COc1cccc(-c2c(C)n(Cc3c(F)cccc3C(F)(F)F)c(=O)n(C[C@H](NCCCC(=O)[O-])c3ccccc3)c2=O)c1F.[Na+] [ELAGOLIX SODIUM] . Reported Growth Rate?
OUTPUT: 0

INPUT: Same question, CC(/C=C1\SC(=S)N(CCCC(=O)Nc2ccc(C(=O)O)c(O)c2)C1=O)=C\c1ccccc1 this time
OUTPUT: 0

INPUT: Same question, CC(C)(O)c1cncc(-c2nc3ccc(F)cc3n2C2CC2)c1 this time
OUTPUT: 0

INPUT: Same question, NC(=O)[C@@H]1CCCN1C(=O)[C@H](Cc1cnc[nH]1)NC(=O)[C@@H]1CCC(=O)N1 this time
OUTPUT: 1

INPUT: Same question, CC(C)(C)c1ccc(C(=O)Nc2cn3cc(-n4ccnc4)ccc3n2)cc1.Cl.Cl this time
OUTPUT: 1

INPUT: Same question, O=C1c2ccc(Nc3ccc(F)cc3F)cc2CCc2ccc(OC[C@H](O)CO)cc21 [Skepinone-L] this time
OUTPUT: 0

INPUT: Same question, c1cc(CN2CCCNCCNCCCNCC2)ccc1CN1CCCNCCNCCCNCC1 this time
OUTPUT: 0

INPUT: Same question, OCCn1cc(-c2ccc3c(c2)CCC3=NO)c(-c2ccncc2)n1 this time
OUTPUT: 1

INPUT: Same question, Cn1cc(Cl)c2c(Oc3c(F)cc(Nc4cc(Cl)nc(N)n4)cc3F)ccnc21 this time
OUTPUT: 1

INPUT: Same question, CN1CCN(c2ccc(-c3cccc(CN4CCOCC4)c3)cc2NC(=O)c2c[nH]c(=O)cc2C(F)(F)F)CC1 this time
OUTPUT: 1

INPUT: Same question, COc1ccccc1-c1cc(Nc2cccc(CS(N)(=O)=O)c2)ncn1 this time
OUTPUT: 0

INPUT: Same question, CCOC(=O)c1ncn2c1CN(C)C(=O)c1cc(F)ccc1-2 this time
OUTPUT: 0

INPUT: Same question, CCCCN(Cc1ccccc1)C(=O)c1ccc(S(=O)(=O)Nc2ccccc2)cc1 this time
OUTPUT: 1

INPUT: Same question, COc1cc(C#N)ccc1S(=O)(=O)Nc1ccc2c(c1)cc(C)c(=O)n2C this time
OUTPUT: 0

INPUT: Same question, N#CC1(c2ccccn2)CCN(Cc2cc(C(=O)O)c(=O)n3ccccc23)CC1 this time
OUTPUT: 0

INPUT: Same question, CCN(CCO)CCCOc1ccc2c(Nc3cc(CC(=O)Nc4cccc(F)c4)[nH]n3)ncnc2c1 this time
OUTPUT: 0

INPUT: Same question, C[C@H](NC(=O)Nc1cc2[nH]ncc2c(CO)n1)c1ccccn1 this time
OUTPUT: 0

INPUT: Same question, Cc1ccc2[nH]c(CNCCCc3ccncc3)cc(=O)c2c1 [UCSF924NC] this time
OUTPUT: 0
